This section presents binders with their documented pKd values.
assayedSystem: T1, recombinant human αvβ1 integrin extracellular domains (human, UniProt P06756 1-992; P05556 1-728, Secreted glycoprotein heterodimer. It is biotinylated on the omitted Avitag, and an interchain disulfide sits in the omitted coiled-coils.)
T1 construct: Soluble heterodimer co-expressed in Expi293 cells; also called hαvβ1; not shown: Alpha chain: acidic coiled-coil with cysteine and GG-Avitag; Beta chain: basic coiled-coil with cysteine and GG-Avitag
protocol: ForteBio Octet Red (BLI)
pKd: −log10 of the molar value.

binder: Ab-32 (antibody, V domains shown) VH: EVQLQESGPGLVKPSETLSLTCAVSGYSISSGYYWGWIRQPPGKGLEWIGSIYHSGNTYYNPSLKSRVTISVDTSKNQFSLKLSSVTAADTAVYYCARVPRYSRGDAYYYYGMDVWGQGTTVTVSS VL: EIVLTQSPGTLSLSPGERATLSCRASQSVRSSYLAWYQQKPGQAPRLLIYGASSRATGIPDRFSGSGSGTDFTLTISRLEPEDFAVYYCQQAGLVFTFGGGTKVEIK
pKd: 8.13

binder: Ab-31 (antibody, V domains shown) VH: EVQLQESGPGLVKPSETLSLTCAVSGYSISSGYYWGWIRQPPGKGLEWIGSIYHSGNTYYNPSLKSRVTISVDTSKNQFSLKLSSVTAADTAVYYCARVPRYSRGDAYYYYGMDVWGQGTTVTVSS VL: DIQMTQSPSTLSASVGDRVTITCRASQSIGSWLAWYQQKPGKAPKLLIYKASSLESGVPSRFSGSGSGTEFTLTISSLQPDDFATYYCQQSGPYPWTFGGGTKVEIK
pKd: 7.85

binder: Ab-30 (antibody, V domains shown) VH: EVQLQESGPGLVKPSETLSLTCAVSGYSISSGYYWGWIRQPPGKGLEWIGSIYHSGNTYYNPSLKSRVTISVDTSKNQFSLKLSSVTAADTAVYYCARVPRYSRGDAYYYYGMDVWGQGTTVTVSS VL: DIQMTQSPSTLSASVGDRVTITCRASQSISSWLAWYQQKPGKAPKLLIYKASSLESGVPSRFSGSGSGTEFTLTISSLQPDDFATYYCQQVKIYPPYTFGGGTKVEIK
pKd: 8.17

binder: Ab-33 (antibody, V domains shown) VH: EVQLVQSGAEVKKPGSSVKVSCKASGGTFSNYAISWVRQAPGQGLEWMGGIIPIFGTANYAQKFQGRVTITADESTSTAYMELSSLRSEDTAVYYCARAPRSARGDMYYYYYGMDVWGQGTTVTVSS VL: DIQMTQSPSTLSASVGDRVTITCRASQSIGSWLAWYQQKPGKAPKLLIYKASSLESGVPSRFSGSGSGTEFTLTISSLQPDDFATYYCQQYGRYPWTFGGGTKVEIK
pKd: 7.90
